B1: PhoQ; a variant is named by its letters at X, in order, P23837 (parent)
chain: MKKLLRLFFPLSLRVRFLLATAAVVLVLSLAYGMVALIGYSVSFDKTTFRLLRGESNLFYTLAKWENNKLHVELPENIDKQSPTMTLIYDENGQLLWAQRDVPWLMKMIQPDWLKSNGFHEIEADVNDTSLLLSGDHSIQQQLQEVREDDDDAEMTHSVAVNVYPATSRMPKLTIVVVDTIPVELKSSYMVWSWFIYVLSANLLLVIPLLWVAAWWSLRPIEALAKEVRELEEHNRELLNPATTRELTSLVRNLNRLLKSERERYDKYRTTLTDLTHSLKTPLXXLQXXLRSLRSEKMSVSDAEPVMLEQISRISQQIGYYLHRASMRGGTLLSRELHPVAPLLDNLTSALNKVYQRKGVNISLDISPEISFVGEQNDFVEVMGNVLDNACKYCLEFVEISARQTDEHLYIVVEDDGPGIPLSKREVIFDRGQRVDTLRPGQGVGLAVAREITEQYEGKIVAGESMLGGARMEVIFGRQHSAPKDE

variants of: B1; test: enrichment ratio after two sorts for PhoP signalling (ratio (wild type AVST 3.29)); higher = more functional; details: with PhoP (E. coli)
In all, about 140,000 sequences were measured (“enrichment ratio after two sorts for PhoP signalling”: median about 0, highest 2% from about 11 on). The list comes from a sample in which the highest values are over-represented; it also holds close analogues and randomly drawn sequences.
Values of enrichment ratio greater than or equal to 8 map to 1; values below map to 0.

GGVL ... 0

Is enrichment ratio at least 8? Consider TDCH
1

Is enrichment ratio at least 8? Consider STNY
1

Is enrichment ratio at least 8? Consider YTSQ
0

Is enrichment ratio at least 8? Consider KQSQ
0

Is enrichment ratio at least 8? Consider KRHD
0

Is enrichment ratio at least 8? Consider TTNY
1

Is enrichment ratio at least 8? Consider ADSQ
0

Is enrichment ratio at least 8? Consider TDFA
0

Is enrichment ratio at least 8? Consider TTYY
0

Is enrichment ratio at least 8? Consider TKMG
0

Is enrichment ratio at least 8? Consider FDMH
0

Is enrichment ratio at least 8? Consider SQFA
0

Is enrichment ratio at least 8? Consider LTCH
0

Is enrichment ratio at least 8? Consider ADMI
1

Is enrichment ratio at least 8? Consider TTNS
0

Is enrichment ratio at least 8? Consider CSSV
0

Values compiled from a collection of fitness landscapes (doi:10.1126/science.1257360).
